system: PANC-1; test: Cytotoxicity against human PANC1 cells in nutrient-deprived condition assessed as preferential cell death after 24 hrs by WST-8 assay
Known PC50 of a selection of compounds
assay-metric: PC50

> print(dat)
                                   compound  assay.result
1  O=C(/C=C/c1ccccc1)OCc1ccccc1 [BENZYL CINNAMATE]       >100 µM
2         O=C(/C=C/c1ccccc1)OC/C=C/c1ccccc1       >100 µM
3                 COc1ccc(/C=C/C(=O)O)cc1OC       >100 µM
4                          COc1cc(C=O)ccc1O       >100 µM
5     COc1cc(O)c2c(=O)c(O)c(-c3ccccc3)oc2c1       >100 µM
6  COc1cc(O)cc2c1C(=O)[C@H](O)[C@@H](c1ccccc1)O2       >100 µM
7              O=C(OC/C=C/c1ccccc1)c1ccccc1       >100 µM
